// provenance: paper PMC8780828

- Procedure Summary: in vitro
- Test Settings: both, human, plasma
Quantity Measured: fraction unbound

Problem: Name the reported fraction unbound value associated with the compound O=C(O)c1cc(-c2ccc(/C=C3\SC(=S)N(CCc4ccccc4)C3=O)o2)ccc1Cl [NBCoV1]
Result: < 0.005

====

- Tested on: NL4-3ΔEnv-NanoLuc/SARS-CoV-2
- Procedure Summary: organism not typed
- Format: cell-based
Quantity Measured: IC100 (range of IC100 values detected in the three cell lines)

Example cases with answers are listed next.
Problem: Lab note: need IC100 (range of IC100 values detected in the three cell lines) for O=C(O)c1cc(-c2ccc(/C=C3\SC(=S)N(CCc4ccccc4)C3=O)o2)ccc1Br [NBCoV8] on NL4-3ΔEnv-NanoLuc/SARS-CoV-2, anyone have it?
Result: 1 to 2.5 µM

Problem: Form field: IC100 (range of IC100 values detected in the three cell lines) recorded for O=C(O)c1cccc(-c2ccc(/C=C3\SC(=S)N(CCc4ccccc4)C3=O)o2)c1 [NBCoV2] with NL4-3ΔEnv-NanoLuc/SARS-CoV-2 (enter value)
Result: 0.3 to 1 µM

Problem: # get_value(readout= IC100 (range of IC100 values detected in the three cell lines), system= NL4-3ΔEnv-NanoLuc/SARS-CoV-2) for O=C(O)c1cc(-c2ccc(/C=C3\SC(=S)N(CCc4ccccc4)C3=O)o2)ccc1Cl [NBCoV1]
Result: 0.25 to 1 µM

Problem: Param readout = IC100 (range of IC100 values detected in the three cell lines); param system = NL4-3ΔEnv-NanoLuc/SARS-CoV-2; param query = CCc1ccc(-c2ccc(/C=C3\SC(=S)N(CCc4ccccc4)C3=O)o2)cc1C(=O)O [NBCoV6] ; response: value
Result: 1 to 3 µM

Problem: Query the reported IC100 (range of IC100 values detected in the three cell lines) for NL4-3ΔEnv-NanoLuc/SARS-CoV-2; item: O=C(O)c1cc(-c2ccc(/C=C3\SC(=S)N(CCc4ccccc4)C3=O)o2)ccc1F [NBCoV3]
Result: 0.5 to 1.2 µM

Problem: Hello, I am looking for reported IC100 (range of IC100 values detected in the three cell lines) with NL4-3ΔEnv-NanoLuc/SARS-CoV-2 for Cc1c(C(=O)O)cncc1-c1ccc(/C=C2\SC(=S)N(CCc3ccccc3)C2=O)o1 [NBCoV9] . Could you help?
Result: 2 to 3 µM

Problem: So what IC100 (range of IC100 values detected in the three cell lines) did Cc1c(C(=O)O)cccc1-c1ccc(/C=C2\SC(=S)N(CCc3ccccc3)C2=O)o1 [NBCoV5] get with NL4-3ΔEnv-NanoLuc/SARS-CoV-2?
Result: >2 µM

Problem: What is its IC100 (range of IC100 values detected in the three cell lines) for NL4-3ΔEnv-NanoLuc/SARS-CoV-2? Entry: Cc1ccc(-c2ccc(/C=C3\SC(=S)N(CCc4ccccc4)C3=O)o2)cc1C(=O)O [NBCoV4]
Result: 0.3 to 1 µM

Others:
Problem: Field: IC100 (range of IC100 values detected in the three cell lines) (NL4-3ΔEnv-NanoLuc/SARS-CoV-2). Entry: O=C(O)c1cccc(-c2ccc(/C=C3\SC(=S)N(CCc4ccccc4)C3=O)o2)c1F [NBCoV7]
Result: 1 to 3 µM
